biological target: Cytosolic phospholipase A2 (Homo sapiens)
Sequence (P47712 whole entry): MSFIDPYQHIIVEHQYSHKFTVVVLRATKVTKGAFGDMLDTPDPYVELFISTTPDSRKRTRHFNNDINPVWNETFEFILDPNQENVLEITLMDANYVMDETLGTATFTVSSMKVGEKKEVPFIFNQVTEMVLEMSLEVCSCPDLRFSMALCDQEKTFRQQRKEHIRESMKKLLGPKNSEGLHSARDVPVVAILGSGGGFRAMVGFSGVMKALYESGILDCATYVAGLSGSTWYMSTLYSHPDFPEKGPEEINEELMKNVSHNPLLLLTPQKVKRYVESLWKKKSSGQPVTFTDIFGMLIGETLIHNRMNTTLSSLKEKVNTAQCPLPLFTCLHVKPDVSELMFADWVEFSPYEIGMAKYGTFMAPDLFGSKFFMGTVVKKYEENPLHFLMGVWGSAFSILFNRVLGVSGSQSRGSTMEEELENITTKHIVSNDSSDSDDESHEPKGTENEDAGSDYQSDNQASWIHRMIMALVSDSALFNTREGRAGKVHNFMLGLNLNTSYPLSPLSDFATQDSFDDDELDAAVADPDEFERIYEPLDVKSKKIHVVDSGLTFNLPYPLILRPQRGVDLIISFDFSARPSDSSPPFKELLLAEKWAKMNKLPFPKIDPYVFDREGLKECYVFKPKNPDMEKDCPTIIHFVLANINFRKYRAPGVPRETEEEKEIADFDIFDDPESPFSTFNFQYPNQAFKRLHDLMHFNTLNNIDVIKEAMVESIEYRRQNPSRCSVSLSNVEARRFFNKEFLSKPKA
pIC50: −log10 of the molar value.
Binary classification by pIC50, with 5 as an inclusive lower bound for T; all other cases are F.

Worked cases, answers included:
[
  {
    "MOLECULE_SMILES": "C=CCn1c(=O)n(C/C=C/COc2ccc(C(=O)O)cc2)c(=O)n(C(c2ccccc2)c2ccccc2)c1=O",
    "GROUP": "T"
  },
  {
    "MOLECULE_SMILES": "O=C(O)c1ccc(OCCn2c(=O)on(CC(c3ccccc3)c3ccccc3)c2=O)cc1",
    "GROUP": "T"
  },
  {
    "MOLECULE_SMILES": "CCCCn1c(=O)n(CCOc2ccc(C(=O)O)cc2)c(=O)n(C(c2ccccc2)c2ccccc2)c1=O",
    "GROUP": "T"
  },
  {
    "MOLECULE_SMILES": "O=C(O)c1ccc(OCCn2c(=O)n(Cc3ccccc3)c(=O)n(CC(c3ccccc3)c3ccccc3)c2=O)cc1",
    "GROUP": "F"
  },
  {
    "MOLECULE_SMILES": "O=C(O)c1cccc(OCCn2c(=O)on(CC(c3ccccc3)c3ccccc3)c2=O)c1",
    "GROUP": "F"
  },
  {
    "MOLECULE_SMILES": "O=C(O)c1ccc(OCCn2c(=O)n(Cc3ccccc3)c(=O)n(C(c3ccccc3)c3ccccc3)c2=O)cc1",
    "GROUP": "T"
  },
  {
    "MOLECULE_SMILES": "O=C(O)c1ccc(OC/C=C/Cn2c(=O)on(CC(c3ccccc3)c3ccccc3)c2=O)cc1",
    "GROUP": "F"
  }
]

Item O=C(O)c1ccc(OCCn2c(=O)n(-c3ccccc3)c(=O)n(C(c3ccccc3)c3ccccc3)c2=O)cc1 with pIC50 of 5 or above?
F
